Values from ChEMBL document CHEMBL1129840

Target: Macrophage colony-stimulating factor 1 receptor (Homo sapiens)
Experiment: Antagonism towards Colony stimulating factor 1 receptor (CSF-1R)
pIC50: −log10 of the molar value.
Outcome Measure: pIC50

[
  {
    "Input Smiles": "Cc1cc(C)c2ncnc(N(C)c3ccccc3)c2c1",
    "Result": "< 4.70"
  },
  {
    "Input Smiles": "CN(c1ccccc1)c1ncnc2ccc(Cl)cc12",
    "Result": 5.30
  },
  {
    "Input Smiles": "COc1cc2ncnc(Nc3cc(OC)c(OC)c(OC)c3)c2cc1OC",
    "Result": "< 4.00"
  },
  {
    "Input Smiles": "COc1cc2ncnc(N(C)c3ccc(Cl)cc3)c2cc1OC",
    "Result": 5.68
  }
]

Problem: Note down pIC50 recorded for COc1cc2nc(Cl)nc(N(C)c3ccccc3)c2cc1OC
Result: < 4.30

Problem: Specify measured pIC50 for COc1cc2c(N(C)c3ccccc3)ncnc2c(OC)c1OC .
Result: < 4.70

---

Molecular target: UniProt P06239
Sequence (P06239 whole entry): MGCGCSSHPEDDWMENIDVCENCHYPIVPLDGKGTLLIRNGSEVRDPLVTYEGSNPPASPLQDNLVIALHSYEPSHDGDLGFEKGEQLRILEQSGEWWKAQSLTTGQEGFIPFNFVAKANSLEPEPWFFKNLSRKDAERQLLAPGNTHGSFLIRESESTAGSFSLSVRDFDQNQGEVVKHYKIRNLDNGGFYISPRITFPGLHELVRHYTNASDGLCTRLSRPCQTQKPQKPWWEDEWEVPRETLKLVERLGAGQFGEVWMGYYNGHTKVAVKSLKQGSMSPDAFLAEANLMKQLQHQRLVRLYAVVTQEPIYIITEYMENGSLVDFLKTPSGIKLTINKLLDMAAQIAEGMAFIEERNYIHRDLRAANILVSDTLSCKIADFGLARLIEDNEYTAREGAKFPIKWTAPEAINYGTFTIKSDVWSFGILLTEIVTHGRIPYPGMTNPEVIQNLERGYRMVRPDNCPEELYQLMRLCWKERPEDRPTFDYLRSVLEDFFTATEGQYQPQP
Assay: Inhibition of p56 lck tyrosine kinase (inactive)
Outcome Measure: IC50

Problem: Give the reported value of IC50 for this record: COc1cc2ncnc(N(C)c3ccccc3)c2cc1OC
Result: > 100 µM

---

Molecular target: Macrophage colony-stimulating factor 1 receptor (Homo sapiens, UniProt P07333)
Sequence (P07333 whole entry): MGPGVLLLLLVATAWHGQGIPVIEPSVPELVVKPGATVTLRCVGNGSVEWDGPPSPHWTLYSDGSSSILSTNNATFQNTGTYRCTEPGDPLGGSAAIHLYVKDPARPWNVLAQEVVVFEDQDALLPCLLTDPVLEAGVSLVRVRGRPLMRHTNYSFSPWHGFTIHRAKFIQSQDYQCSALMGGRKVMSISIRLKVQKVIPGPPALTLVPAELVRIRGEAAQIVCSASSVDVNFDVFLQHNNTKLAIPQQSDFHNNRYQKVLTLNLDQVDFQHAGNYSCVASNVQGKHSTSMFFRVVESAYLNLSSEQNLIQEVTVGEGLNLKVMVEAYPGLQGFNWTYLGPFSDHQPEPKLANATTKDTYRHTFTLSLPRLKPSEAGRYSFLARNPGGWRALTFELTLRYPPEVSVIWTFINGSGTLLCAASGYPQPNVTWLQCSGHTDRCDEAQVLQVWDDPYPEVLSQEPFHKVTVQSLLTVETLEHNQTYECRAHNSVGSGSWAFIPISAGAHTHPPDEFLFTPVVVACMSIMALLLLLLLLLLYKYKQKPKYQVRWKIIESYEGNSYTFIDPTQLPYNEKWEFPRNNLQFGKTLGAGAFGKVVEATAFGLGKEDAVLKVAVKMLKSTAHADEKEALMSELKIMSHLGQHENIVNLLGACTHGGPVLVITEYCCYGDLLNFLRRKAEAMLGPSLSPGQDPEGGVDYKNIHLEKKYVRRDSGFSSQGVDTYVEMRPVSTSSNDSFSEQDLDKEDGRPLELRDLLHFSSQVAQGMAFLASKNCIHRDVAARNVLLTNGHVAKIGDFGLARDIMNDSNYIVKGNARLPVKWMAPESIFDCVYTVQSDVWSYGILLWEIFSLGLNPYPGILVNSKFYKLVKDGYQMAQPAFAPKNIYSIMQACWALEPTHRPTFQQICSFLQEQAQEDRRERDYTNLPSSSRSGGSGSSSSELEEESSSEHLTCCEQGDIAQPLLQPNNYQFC
Test: Antagonism towards Colony stimulating factor 1 receptor (CSF-1R)
Outcome Measure: IC50 (µM)

Examples with answers:
[
  {
    "Input Smiles": "COc1cc2ncnc(N(C)c3cccc(C)c3)c2cc1OC",
    "Numeric Result": 0.18
  },
  {
    "Input Smiles": "Cc1cccc(N(C)c2ncnc3cc(C)c(C)cc23)c1",
    "Numeric Result": 1.6
  },
  {
    "Input Smiles": "CN(c1ccccc1)c1[nH]cnc2nncc1-2",
    "Numeric Result": 0.6
  },
  {
    "Input Smiles": "COc1cc2ncnc(N(C)c3cccc(Cl)c3)c2cc1OC",
    "Numeric Result": 1.5
  },
  {
    "Input Smiles": "COc1ccc2ncnc(N(C)c3ccccc3)c2c1",
    "Numeric Result": 20
  },
  {
    "Input Smiles": "COc1cc2ncnc(N3CCc4ccccc43)c2cc1OC",
    "Numeric Result": 5
  }
]

a: COc1cc2ncnc(N(C)c3ccc(C)cc3)c2cc1OC
b: COc1cc2ncnc(N(C)c3cccc(C(F)(F)F)c3)c2cc1OC
Problem: Exercise: compare a and b ; which one has the greater IC50? Answer with the label corresponding to your selection.
Result: a
(a: 2 µM, b: 0.5 µM)

---

Molecular target: Platelet-derived growth factor receptor (Homo sapiens, UniProt P09619+P16234)
Test: Inhibition of platelet-derived growth factor receptor (PDGF-R)
Outcome Measure: IC50 (µM)

[
  {
    "Input Smiles": "COc1cc2ncnc(N(C)c3ccccc3)c2cc1OC",
    "IC50 / µM": 15
  },
  {
    "Input Smiles": "COc1cc2ncnc(Nc3cc(OC)c(OC)c(OC)c3)c2cc1OC",
    "IC50 / µM": 20
  }
]

---

// IC50 collected for Epidermal growth factor receptor (Homo sapiens, UniProt P00533)
Outcome Measure: IC50 (µM)

Example molecules with recorded IC50:
[
  {
    "Input Smiles": "COc1cc2ncnc(N3CCc4ccccc43)c2cc1OC",
    "Numeric Result": 3
  },
  {
    "Input Smiles": "COc1cc2ncnc(N(C)c3ccc(C)cc3)c2cc1OC",
    "Numeric Result": 4
  },
  {
    "Input Smiles": "CCN(c1ccccc1)c1ncnc2cc(OC)c(OC)cc12",
    "Numeric Result": 5.5
  },
  {
    "Input Smiles": "COc1cc2ncnc(N(C)c3cccc(C)c3)c2cc1OC",
    "Numeric Result": 12
  }
]

P: COc1cc2ncnc(N(C)c3ccccc3)c2cc1OC
Q: CN(c1ccccc1)c1ncnc2[nH]cnc12
R: COc1cc2ncnc(Nc3ccccc3)c2cc1OC
Problem: Rank the items in ascending order with respect to IC50. List the labels, following the order given in the request.
Result: R, Q, P

---

Biological target: Macrophage colony-stimulating factor 1 receptor (Homo sapiens)
Experiment: Antagonism towards Colony stimulating factor 1 receptor (CSF-1R)
Parameter pIC50: see the listing below.
Note on units: pIC50 is unitless, being -log10 of a concentration expressed in mol/L.

[
  {
    "Input Smiles": "CN(c1ccccc1)c1ncnc2[nH]cnc12",
    "pIC50": 5.40
  }
]

Query compound follows.
Problem: Tell me pIC50 reported for Cc1cccc(N(C)c2ncnc3n[nH]cc23)c1
Result: 6.74

---

A set of molecules tested on Epidermal growth factor receptor (Homo sapiens), with measured pIC50:
pIC50: −log10 of the molar value.

Example entries begin here.
[
  {
    "Input Smiles": "COc1cc2nc(Cl)nc(N(C)c3ccccc3)c2cc1OC",
    "pIC50": "< 4.30"
  },
  {
    "Input Smiles": "COc1nc(N(C)c2ccccc2)c2cc(OC)c(OC)cc2n1",
    "pIC50": "< 4.30"
  },
  {
    "Input Smiles": "CN(c1ccccc1)c1ncnc2ccc(Cl)cc12",
    "pIC50": "< 4.70"
  }
]

Proceed to the following item.
Problem: Give the observed pIC50 of Cc1cccc(N(C)c2ncnc3n[nH]cc23)c1 for Epidermal growth factor receptor (Homo sapiens).
Result: < 4.30

---

Target: Macrophage colony-stimulating factor 1 receptor (Homo sapiens)
Test: Antagonism towards Colony stimulating factor 1 receptor (CSF-1R)
Outcome Measure: IC50

Past entries and their recorded results:
[
  {
    "Input Smiles": "COc1nc(N(C)c2ccccc2)c2cc(OC)c(OC)cc2n1",
    "Outcome Measure": "IC50",
    "Result": "> 50 µM"
  },
  {
    "Input Smiles": "COc1cc2ncnc(Nc3ccccc3)c2cc1OC",
    "Outcome Measure": "IC50",
    "Result": "> 50 µM"
  }
]

Problem: Return the recorded IC50 value; entry: CN(c1ccccc1)c1ncnc2ccccc12
Result: > 20 µM
